The measured values listed here are drawn from PubChem BioAssay AID1508601.

molecular target: Cellular tumor antigen p53 (Homo sapiens) (UniProt P04637); test: nuclear p53 accumulation, HPV+ cells – imaging, p53-positive nuclei imaging, 24 h, 48 h (AID 1508601); settings: 24/48 h, hits give high values, concentration not given here
Sequence (P04637 whole entry, looked up): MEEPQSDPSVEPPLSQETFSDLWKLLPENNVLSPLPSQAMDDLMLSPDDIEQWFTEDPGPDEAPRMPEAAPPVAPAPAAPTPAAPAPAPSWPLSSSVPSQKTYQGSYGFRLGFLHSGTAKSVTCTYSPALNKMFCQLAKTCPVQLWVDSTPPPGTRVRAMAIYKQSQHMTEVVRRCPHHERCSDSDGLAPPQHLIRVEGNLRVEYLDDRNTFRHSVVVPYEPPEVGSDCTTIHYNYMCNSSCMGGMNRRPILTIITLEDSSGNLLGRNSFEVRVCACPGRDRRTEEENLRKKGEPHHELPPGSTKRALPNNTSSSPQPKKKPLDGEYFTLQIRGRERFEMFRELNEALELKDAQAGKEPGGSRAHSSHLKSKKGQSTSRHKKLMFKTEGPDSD
Screen size: about 5,700 compounds; about 85 (1%) were called active. Many of the other results were omitted from the sample, so actives are more common in it than they were.
Readout: p53-positive nuclei, normalised (%)
One number for each entry, in %.

Check out these entries, answers already filled in.
>  <Compound>
CCCCC/C=C/C=C1/C=CC(=O)[C@@H]1C/C=C\CCCC(=O)O

>  <Assay Target>
Cellular tumor antigen p53 (Homo sapiens) (UniProt P04637)

>  <Result Unit>
%

>  <Measured Result>
0.0559

$$$$
>  <Compound>
NC(=O)c1ccc(-c2nc(-c3ccc4c(c3)OCCO4)c(-c3ccccn3)[nH]2)cc1

>  <Assay Target>
Cellular tumor antigen p53 (Homo sapiens) (UniProt P04637)

>  <Result Unit>
%

>  <Measured Result>
-0.0133

$$$$
>  <Compound>
CC(Oc1ccc2c(c1)OCO2)C(=O)N(Cc1nccn1C)C(C)C (configuration not stated)

>  <Assay Target>
Cellular tumor antigen p53 (Homo sapiens) (UniProt P04637)

>  <Result Unit>
%

>  <Measured Result>
-0.128

$$$$
>  <Compound>
CC(C)[C@H](C(=O)Nc1ccc(C(=O)NO)cc1)c1ccccc1

>  <Assay Target>
Cellular tumor antigen p53 (Homo sapiens) (UniProt P04637)

>  <Result Unit>
%

>  <Measured Result>
9.18

$$$$
>  <Compound>
CC(C)CC1(CO)CCCN(C(=O)c2cccc(C#CC(C)(C)O)c2)C1 (configuration not stated)

>  <Assay Target>
Cellular tumor antigen p53 (Homo sapiens) (UniProt P04637)

>  <Result Unit>
%

>  <Measured Result>
0.108

$$$$
>  <Compound>
O=C1OC2(c3ccc(O)cc3Oc3cc(Oc4ccc(O)cc4)ccc32)c2ccccc21 (configuration not stated)

>  <Assay Target>
Cellular tumor antigen p53 (Homo sapiens) (UniProt P04637)

>  <Result Unit>
%

>  <Measured Result>
-0.0688

$$$$

Using known records, supply p53-positive nuclei, normalised for O=C(O)CCNC(=O)c1ccccc1
0.0211

###

molecular target: Cellular tumor antigen p53 (Homo sapiens); assay: nuclear p53 accumulation, HPV+ cells – imaging, p53-positive nuclei imaging, 24 h, 48 h (AID 1508601); conditions: 24/48 h, Library stock concentration: 3.33 mM, hits give high values
In all, about 5,700 compounds went through this assay and about 85 (1%) were called active. For the sample, actives were picked, then their nearest neighbours and some compounds at random.
I'd appreciate it if you could supply p53-positive nuclei, normalised values for the items below.
Give bare numbers, in %.

Answered cases to consult:
>  <Compound>
CN(C)Cc1ccc(S(=O)(=O)n2ccc(C=CC(=O)NO)c2)cc1

>  <p53-positive nuclei, normalised / %>
2.58

$$$$
>  <Compound>
Cc1ccc([N+](=O)[O-])cc1S(=O)(=O)N(C)N=Cc1cnc2ccc(Br)cn12

>  <p53-positive nuclei, normalised / %>
14.4

$$$$

Consider the additional compound presented here.
For the compound CCCC1CC(C(=O)NC(C(C)O)[C@@H]2OC(SC)C(O)C(O)C2O)N(C)C1 (stereo partly drawn) , report p53-positive nuclei, normalised.
-0.245
